Each item that follows carries a reported fraction unbound at 5 h, 1000 ng/g.
assay-protocol: Unbound fraction in human plasma at 1000 ng/g after 5 hrs by equilibrium dialysis method
Format: ADME, cell-free
Returns: the value as a bare number; no unit string appended.

fraction unbound at 5 h, 1000 ng/g recorded for this compound, "CN1CCC(c2cn(-c3ccc(F)cc3)c3ccc(-c4cncnc4)cc23)CC1" , is 0.096

Let us examine a further case.
GET /value?item= "CN1CCC(c2cn(-c3ccc(F)cc3)c3ccc(-c4ncn(C)n4)cc23)CC1" &field=fraction unbound at 5 h, 1000 ng/g returns 0.17

====

assay-protocol: Efflux ratio of apparent permeability from basolateral to apical side over apical to basolateral side in human Caco2 cells at 20 uM
Type: ADME, cell-based
condition-details: Caco-2
endpoint-name: efflux ratio at 20 µM
Reply with just the number.

Record summary for "CN1CCC(c2cn(-c3ccc(F)cc3)c3ccc(-c4ncn(C)n4)cc23)CC1" : reported efflux ratio at 20 µM = 0.7

src = ChEMBL document CHEMBL2321719
